Listed here are molecules together with their documented deltaT.
Tested on: Rattus norvegicus
test summary: Presynaptic agonist activity at 5HT1A receptor in Rattus norvegicus Wistar (rat) assessed as change in rectal temperature at 20 mg/kg, ip measured after 60 min (reference value: 0.0 +/- 0.1 degC)
Type: functional, organism-based
Design: dose 20 mg/kg
recorded endpoint: deltaT (°C)

| molecule | measured result |
| --- | --- |
| COc1ccc(NCCN2C(=O)OC(c3ccccc3)C2=O)cc1 (configuration not stated) | -1.5 |
| O=C1OC(c2ccccc2)C(=O)N1CCN1CCN(c2ccc(F)cc2)CC1 (configuration not stated) | -1.4 |
| O=C1NC(c2ccccc2)(c2ccccc2)C(=O)N1CCN1CCN(c2ccc(F)cc2)CC1 | -1.6 |
| O=C1OC(c2ccccc2)C(=O)N1CCNc1ccc(Cl)cc1 (configuration not stated) | -1.3 |
| COc1ccc(NCCN2C(=O)NC(c3ccccc3)(c3ccccc3)C2=O)cc1 | -1.5 |
| O=C1NC(c2ccccc2)(c2ccccc2)C(=O)N1CCNc1ccc(F)cc1 | -2.7 |
| O=C1OC(c2ccccc2)C(=O)N1CCNc1ccc(O)cc1 (configuration not stated) | -1.2 |

====

Tested on: Rattus norvegicus
test summary: Neurotoxicity against Rattus norvegicus Wistar (rat) assessed as inability to maintain equilibrium on rod at 30 mg/kg, po measured after 0.5 hr by rotarod test
Type: toxicity, organism-based
Design: dose 30 mg/kg, route oral
setup conditions: in vivo

| molecule | Activity |
| --- | --- |
| COc1ccc(NCCN2C(=O)OC(c3ccccc3)C2=O)cc1 (stereo not drawn) | Non-toxic |
| O=C1OC(c2ccccc2)C(=O)N1CCN1CCN(c2ccc(F)cc2)CC1 (stereo not drawn) | Non-toxic |
| O=C1OC(c2ccccc2)C(=O)N1CCNc1ccc(Cl)cc1 (stereo not drawn) | Non-toxic |

====

Listed here are compounds together with their documented deltaT.
Tested on: Rattus norvegicus
test summary: Presynaptic agonist activity at 5HT1A receptor in Rattus norvegicus Wistar (rat) assessed as change in rectal temperature at 20 mg/kg, ip measured after 120 min (reference value: 0.0 +/- 0.1 degC)
Format: functional, organism-based
Parameters: dose 20 mg/kg

| compound | deltaT / °C |
| --- | --- |
| O=C1NC(c2ccccc2)(c2ccccc2)C(=O)N1CCN1CCN(c2ccc(F)cc2)CC1 | -1.7 |
| O=C1OC(c2ccccc2)C(=O)N1CCNc1ccc(O)cc1 (configuration not stated) | -1.1 |
| COc1ccc(NCCN2C(=O)NC(c3ccccc3)(c3ccccc3)C2=O)cc1 | -1.3 |
| O=C1NC(c2ccccc2)(c2ccccc2)C(=O)N1CCNc1ccc(F)cc1 | -1.5 |
| COc1ccc(NCCN2C(=O)OC(c3ccccc3)C2=O)cc1 (configuration not stated) | -1.3 |
| O=C1OC(c2ccccc2)C(=O)N1CCNc1ccc(Cl)cc1 (configuration not stated) | -1.3 |
| O=C1OC(c2ccccc2)C(=O)N1CCN1CCN(c2ccc(F)cc2)CC1 (configuration not stated) | -1.4 |

Values from ChEMBL document CHEMBL3044586
